assay: qHTS Assay for Anthrax Lethal Toxin Internalization; conditions: Cells, FRET ratio (460/530); series mostly up to 40 µM; also: % is scaled to controls: 0 for no effect and ±100 for the full control effect; nearly all actives have a fitted effect of over 50% in size
The campaign covered roughly 70,000 compounds. About 470 (0.67%) were called active. Inconclusive results (about 18%) are left out. Only a selection was taken, and actives are over-represented in it overall.
Measured endpoint: activity change, negative = inhibition

Past entries and their recorded results:
[
  {
    "Molecule": "N#Cc1nc(Cc2ccccc2)oc1NCCc1ccccc1",
    "activity change, negative = inhibition": "inactive"
  },
  {
    "Molecule": "COC(=O)NC(c1ccccc1)[C@]1(C(C)=O)CCCC1=O (some centres not stated)",
    "activity change, negative = inhibition": "-2.74% [at 8 µM] (inactive)"
  },
  {
    "Molecule": "NS(=O)(=O)c1cc(C(=O)O)c(Cl)c([N+](=O)[O-])c1Cl",
    "activity change, negative = inhibition": "-7.65% [at 8 µM] (inactive)"
  },
  {
    "Molecule": "CC(C)C[C@@H](CC(=O)N[C@@H](CCC(=O)O)CC(=O)O)NC(=O)[C@@H]1CCCC[C@H]1NC(=O)C[C@@H](NC(=O)C[C@H](CO)NC(=O)[C@@H]1CCCC[C@H]1N)C(C)C",
    "activity change, negative = inhibition": "inactive"
  },
  {
    "Molecule": "O=C(CC(Cc1ccccc1)C(=O)O)NCCc1ccc2c(c1)OCO2 (configuration not stated)",
    "activity change, negative = inhibition": "inactive"
  },
  {
    "Molecule": "O=P(c1cccs1)(c1cccs1)c1cccs1",
    "activity change, negative = inhibition": "inactive"
  },
  {
    "Molecule": "CC(C)CO",
    "activity change, negative = inhibition": "inactive"
  },
  {
    "Molecule": "N[C@@H](C(=O)O)c1ccc(P(=O)(O)O)cc1",
    "activity change, negative = inhibition": "inactive"
  },
  {
    "Molecule": "Cc1ccccc1N1CCN(S(=O)(=O)C[C@@]23CC[C@H](C[C@H]2NC(=O)[C@@H](N)CCS(C)(=O)=O)C3(C)C)CC1",
    "activity change, negative = inhibition": "inactive"
  },
  {
    "Molecule": "CCCNC(=O)OC[C@@H]1O[C@H](c2ccccc2)C=C[C@@H]1Oc1ccc(OC)cc1",
    "activity change, negative = inhibition": "-2.83% [at 8 µM] (inactive)"
  }
]

[ask] Would you mind telling me what activity change, negative = inhibition value was observed for "CC(C)[C@@H](CC(=O)N[C@@H]1CCNC[C@H]1C(=O)N[C@H](CC(=O)N[C@@H](CCC(=O)O)CC(=O)O)Cc1ccccc1)NC(=O)C[C@H](CO)NC(=O)[C@@H]1CNCC[C@H]1N" ?
[reply] inactive

[ask] Item: "C=CCOC(=O)COCCC(C)C"
[reply] inactive

[ask] Item: COC(=O)c1ccc(C(NC(=O)OCc2ccccc2)/C(C)=C/[C@@H](C)C(=O)NCc2cc(C)on2)cc1 (some centres not stated)
[reply] inactive

----------
test: qHTS Assay for Anthrax Lethal Toxin Internalization; settings: Cells, FRET ratio (460/530); series mostly up to 40 µM; also: % is scaled to controls: 0 for no effect and ±100 for the full control effect; nearly all actives have a fitted effect of over 50% in size
Out of some 70,000 compounds screened, about 470 (0.67%) were called active. About 18% were inconclusive and are not listed. The sample holds actives, similar compounds and a random draw of the others, so the mix is not that of the screen.
Measured endpoint: activity change, negative = inhibition

Past entries and their recorded results:
[
  {
    "Compound": "CCOC(=O)[C@]1(C(/C=C/c2ccco2)NC(=O)OC)CCCC1=O (stereo partly drawn)",
    "Result": "-10.5% [at 8 µM] (inactive)"
  },
  {
    "Compound": "Cc1ccccc1S(=O)(=O)Cc1ccc(C(=O)NCCN2CCCCC2C)o1 (stereo not drawn)",
    "Result": "inactive"
  },
  {
    "Compound": "COc1ccc(COC(=O)N/N=C2/C[C@@H](O)[C@@H](O)[C@@H]3[C@@H]4C(=O)N([C@@H](C)c5ccccc5)C(=O)[C@H]4CC[C@@H]23)cc1",
    "Result": "-0.559% [at 8 µM] (inactive)"
  },
  {
    "Compound": "COc1ccc2[nH]cc(CCNc3ncnc4ccc(-c5ccc(C(=O)N(C)C)cc5)cc34)c2c1",
    "Result": "inactive"
  },
  {
    "Compound": "CC1(C)OC(C(O)(c2ccccc2)c2ccccc2)C(C(O)(c2ccccc2)c2ccccc2)O1 (stereo not drawn)",
    "Result": "-5.79% [at 8 µM] (inactive)"
  },
  {
    "Compound": "Cc1ccnc(N2CCC(C(=O)NC3CCCCCC3)CC2)n1",
    "Result": "inactive"
  },
  {
    "Compound": "Cc1nc2ccccc2c(=O)n1CCCn1ccnc1",
    "Result": "inactive"
  },
  {
    "Compound": "O=C(c1ccncc1)N1CCC2(CCN(Cc3cc(C(F)(F)F)cc(C(F)(F)F)c3)CC2)CC1",
    "Result": "inactive"
  }
]

[ask] Would you mind telling me what activity change, negative = inhibition value was observed for "CC(N)=NCc1cccc(CN)c1" ?
[reply] inactive

[ask] Item: C=C(C)C1CC=C(C)C(O)C1 (stereo not drawn)
[reply] inactive

----------
experiment: qHTS Assay for Anthrax Lethal Toxin Internalization; conditions: Cells, FRET ratio (460/530); series mostly up to 40 µM; also: % is scaled to controls: 0 for no effect and ±100 for the full control effect; nearly all actives have a fitted effect of over 50% in size
Among all 70,000 compounds or so, about 470 (0.67%) were called active. Another 18% or so got no clear call; they are omitted. What follows is part of a selection rich in actives, with near analogues and random picks from the rest.
Measured endpoint: activity change, negative = inhibition

Past entries and their recorded results:
[
  {
    "Compound": "N#Cc1nc(COc2ccc(-c3ccccc3)cc2)oc1NCc1cccnc1",
    "Measured endpoint": "activity change, negative = inhibition",
    "Result": "inactive"
  },
  {
    "Compound": "CCn1c(CNC(=O)c2ccc(OC)c(OC)c2)nnc1SCC(=O)Nc1ccccc1",
    "Measured endpoint": "activity change, negative = inhibition",
    "Result": "inactive"
  },
  {
    "Compound": "CCCCCCCCCCCC(=O)O[C@H](CC(=O)O)C[N+](C)(C)C",
    "Measured endpoint": "activity change, negative = inhibition",
    "Result": "inactive"
  },
  {
    "Compound": "Cc1cc(C)c2nc3c(c([C@H](O)[C@@H]4CCCCN4)c2c1)CC/C3=C/c1ccc(Cl)cc1",
    "Measured endpoint": "activity change, negative = inhibition",
    "Result": "-12.7% [at 8 µM] (inactive)"
  },
  {
    "Compound": "CS(=O)(=O)N1CCC2(CC1)CN(Cc1ccccc1)C2",
    "Measured endpoint": "activity change, negative = inhibition",
    "Result": "inactive"
  },
  {
    "Compound": "CN(CCCNC(=O)CN1C(=O)CC(C)(C)S(=O)(=O)c2ccccc21)C1CCCCC1",
    "Measured endpoint": "activity change, negative = inhibition",
    "Result": "inactive"
  },
  {
    "Compound": "COC(=O)C1(C)C=CCN1C(=O)c1ccccc1 (centres undefined)",
    "Measured endpoint": "activity change, negative = inhibition",
    "Result": "inactive"
  },
  {
    "Compound": "O=C1[C@H]2[C@H]3[C@H](O)[C@H](O)C/C(=N/OCc4ccccc4)[C@H]3CC[C@@H]2C(=O)N1Cc1ccccc1",
    "Measured endpoint": "activity change, negative = inhibition",
    "Result": "0.866% [at 1.6 µM] (inactive)"
  },
  {
    "Compound": "FC(F)(F)c1ccccc1-c1cc(NCc2ccccc2)ncn1",
    "Measured endpoint": "activity change, negative = inhibition",
    "Result": "inactive"
  },
  {
    "Compound": "COC(=O)C1(C)C=CC2(CCCCC2)N1C(C)=O (centres undefined)",
    "Measured endpoint": "activity change, negative = inhibition",
    "Result": "inactive"
  }
]

# next compound below
[ask] Would you mind telling me what activity change, negative = inhibition value was observed for "CC(=O)N1CCC2(CCCN(Cc3ccc(C#N)cc3)C2)CC1" ?
[reply] inactive

----------
test: qHTS Assay for Anthrax Lethal Toxin Internalization; details: Cells, FRET ratio (460/530); series mostly up to 40 µM; also: % is scaled to controls: 0 for no effect and ±100 for the full control effect; nearly all actives have a fitted effect of over 50% in size
Hit rate of the full screen: of about 70,000 compounds, about 470 (0.67%) were called active. About 18% were inconclusive and are not listed. The full list was thinned out, with actives kept by preference.

[
  {
    "Molecule": "CCC[C@@H]1C[C@@]1(CCC)C(NC(=O)c1ccc(-c2ccccc2)cc1)c1cccc(Cl)c1 (stereo partly drawn)",
    "activity change, negative = inhibition": "inactive"
  },
  {
    "Molecule": "COCCn1c(=O)c(-c2cccs2)nc2cncnc21",
    "activity change, negative = inhibition": "inactive"
  },
  {
    "Molecule": "OCCCNCc1ccccn1",
    "activity change, negative = inhibition": "9.72% [at 8 µM] (inactive)"
  }
]
